Measured values drawn from PubChem BioAssay for this set.

test system: Chordin-like protein 2 (CHRDL2); assay: CHRDL2 small-molecule binders, primary screen, biochemical, small-molecule microarray, 635 nm fluorescence (AID 1126); details: small-molecule microarray binding, fluorescence 635 nm; higher = more signal;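 note: printed compound slides probed with Chrdl2 protein at 4 µg/mL for 1 h at 4 C; score merges 667 nm emission intensity with signal to noise over three replicate slides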
# class assignment by measured composite z-score: low (below 0.05), moderate (0.05 to below 0.6), high (0.6 or more)

INSERT INTO measurements (compound, assigned_label) VALUES
  ('[N-]=[N+]=Nc1ccccc1C[C@]1(C(=O)NCCN2CCOCC2)N=C(c2ccc(OCCCO)cc2)O[C@H]1c1ccccc1', 'moderate'),
  ('C=CCOC(=O)[C@@H]1[C@H]2C(=O)O[C@H](c3ccccc3)[C@H](c3ccccc3)N2[C@H](c2ccc(OCCOC(=O)[C@@H]3C[C@@H]4C(=O)NCC(=O)N4[C@@H]3c3cccc(OCCO)c3)cc2)[C@@]12C(=O)Nc1ccc(I)cc12', 'high'),
  ('Cc1ccc([C@H]2[C@H](C(=O)O)[C@H](Sc3ccccc3)[C@@H](C(C)C)N2S(=O)(=O)c2ccc(C)cc2)cc1', 'low'),
  ('COC(=O)[C@@]1(Cc2ccccc2)[C@H]2c3cc(C(=O)N(C)C)n(Cc4c(-c5ccccc5)noc4C)c3C[C@H]2CN1C(=O)c1ccccc1', 'moderate'),
  ('COc1c(C)cc(-c2cc3c(c(-c4ccc(Oc5ccccc5)cc4)n2)[Si](C(C)C)(C(C)C)OC3)cc1C', 'low'),
  ('CCCCCN1CC=CC23O[C@@H]4/C=C\CCCOC(=O)C4[C@H]2C(=O)N(CCCCCCO)[C@@H]3C1=O (stereo not given in full)', 'low');

QUERY: Could you tell me which band COc1cc2c(cc1O)C(C)N(Cc1cccc(OC(F)(F)F)c1)CC2 (stereo not given) belongs to?
RESULT: low

QUERY: Could you tell me which band "[N-]=[N+]=NCc1ccccc1[C@@H]1OC(c2ccc(OCCCO)cc2)=N[C@]1(Cc1ccccc1)C(=O)N1CCCCC1" belongs to?
RESULT: moderate

QUERY: Could you tell me which band "COCC(=C=CC[C@@H](O)c1ccc(CO)o1)CCO" belongs to?
RESULT: high

QUERY: Could you tell me which band CCOC(=O)C1=CCC(C(C)(C)C)N(S(=O)(=O)c2ccc(C)cc2)C1 (stereo not given) belongs to?
RESULT: high

QUERY: Could you tell me which band Cc1ccccc1C(O)C1C=CC2C(=O)N(C)C(=O)C2N1N1CCCCC1 (stereo not given) belongs to?
RESULT: high

QUERY: Could you tell me which band Cc1ccccc1C(O)C1C=CC2C(=O)N(C)C(=O)C2N1Nc1ccccc1 (stereo not given) belongs to?
RESULT: low

QUERY: Could you tell me which band C=CCC(OC(C)=O)[C@@H]1[C@@H](N(Cc2cccc3ccccc23)C(=O)c2ccc(C)cc2)c2cc(OCCCO)ccc2N1C(=O)Cc1ccc(OC)cc1 (stereo not given in full) belongs to?
RESULT: moderate

QUERY: Could you tell me which band "COc1ccc(C(=O)Nc2cccc(CN3C(=O)[C@]4(O[C@H](CC(=O)N5CCC[C@H]5CO)[C@@H]([Si](C)(C)c5ccc(OC)cc5)[C@@H]4C)c4ccccc43)c2)cc1" belongs to?
RESULT: high
